Values compiled from patent US20240279318A1.

# System: T1, AFP158/HLA-A*02:01 complex (human)
# T1 construct: flowed as analyte in SPR
# Assay remarks: SPR, crude scFv captured, pMHC analyte;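 note: pMHC analyte injected at three concentrations, association phase of one hundred seconds, then running buffer for dissociation, rates fitted from both curves, KD derived from the rates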
Listed next: entries and their corresponding kon.
I only need the number, in M⁻¹ s⁻¹, no unit after it.

Examples with answers:
Binder	kon [M⁻¹ s⁻¹]
AS170036 VL1VH1-57M108A (scFv, also called 28-AS170036 VL1VH1-57M108A) scFv: QSALTQPRSVSGSPGQSVTISCAGTSSDVGSENYVSWYQQHPGKAPKLMIYQVNKRASGVPDRFSGSKSGNTASLTISGLQAEDEADYYCASYRSSDHNIVFGGGTKLTVLGGGGSGGGGSGGGGSEVQLVESGGGLVQPGGSLRLSCAASGFTFSSYAMSWVRQAPGKGLEWVSTINSGTGMPYYADSVKGRFTISRDNSKNTLYLQMNSLRAEDTAVYYCAKNFFDGSWFLAPPAMDYWGQGTLVTVSSHHHHHH	240000
AS170036 VL1VH1-98I108A (scFv, also called 34-AS170036 VL1VH1-98I108A; 34-AS170036 VL1VH1-98I08A) scFv: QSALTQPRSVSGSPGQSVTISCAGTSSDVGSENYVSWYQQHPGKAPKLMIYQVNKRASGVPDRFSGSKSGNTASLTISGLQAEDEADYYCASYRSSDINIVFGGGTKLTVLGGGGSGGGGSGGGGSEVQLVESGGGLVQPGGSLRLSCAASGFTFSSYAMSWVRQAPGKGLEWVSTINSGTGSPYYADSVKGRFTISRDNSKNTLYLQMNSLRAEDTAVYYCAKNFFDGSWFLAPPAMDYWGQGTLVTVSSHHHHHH	280000

Kindly review the next binder as well.
Req: // kon lookup, key: AS170036 VL1VH1-57K108A (scFv, also called 25-AS170036 VL1VH1-57K108A) scFv: QSALTQPRSVSGSPGQSVTISCAGTSSDVGSENYVSWYQQHPGKAPKLMIYQVNKRASGVPDRFSGSKSGNTASLTISGLQAEDEADYYCASYRSSDHNIVFGGGTKLTVLGGGGSGGGGSGGGGSEVQLVESGGGLVQPGGSLRLSCAASGFTFSSYAMSWVRQAPGKGLEWVSTINSGTGKPYYADSVKGRFTISRDNSKNTLYLQMNSLRAEDTAVYYCAKNFFDGSWFLAPPAMDYWGQGTLVTVSSHHHHHH
Resp: 180000
